# ASSAY SYSTEM: human neutrophil elastase (HNE) (Homo sapiens, UniProt P08246)
# Sequence (P08246 30-267): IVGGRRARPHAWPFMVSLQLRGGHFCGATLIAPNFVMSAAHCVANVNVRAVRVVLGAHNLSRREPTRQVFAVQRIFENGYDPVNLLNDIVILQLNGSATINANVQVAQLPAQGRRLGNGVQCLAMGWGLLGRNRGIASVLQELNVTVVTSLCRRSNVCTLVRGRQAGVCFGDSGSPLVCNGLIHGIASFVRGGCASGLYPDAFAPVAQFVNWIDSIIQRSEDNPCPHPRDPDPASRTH
# PROTOCOL: In vitro inhibition of HNE using a fluorogenic peptide substrate (continuous read-out signal, 384 MTP assay format)
# STUDY CONDITIONS: substrate MeOSuc-Ala-Ala-Pro-Val-AMC, 37° C.
MEASURED PROPERTY: IC50
The reply should read as a number followed by its unit.

INSERT INTO results (compound, assay_system, value_measured) VALUES
  ('CC(=O)C1=C(C)N(c2cccc(C(F)(F)F)c2)C(=O)C(C(=O)N(C)C)C1c1ccc(C#N)cc1 (stereo not shown)', 'human neutrophil elastase (HNE) (Homo sapiens, UniProt P08246)', '25 nM'),
  ('CCOC(=O)C1=C(C)N(c2cccc(C(F)(F)F)c2)C(=O)C(C(N)=O)C1c1ccc(C#N)cc1 (stereo not shown)', 'human neutrophil elastase (HNE) (Homo sapiens, UniProt P08246)', '20 nM'),
  ('CC1=C(C#N)C(c2ccc(C#N)cc2)C(C(=O)N(C)C)C(=O)N1c1cccc(C(F)(F)F)c1 (stereo not shown)', 'human neutrophil elastase (HNE) (Homo sapiens, UniProt P08246)', '25 nM');

response.value for CC1=C(C#N)C(c2ccc(C#N)cc2)C(C(=O)NCCO)C(=O)N1c1cccc(C(F)(F)F)c1 (stereo not shown) (field: IC50) = 15 nM

----------
# ASSAY SYSTEM: human neutrophil elastase (HNE) (Homo sapiens)
# PROTOCOL: In vitro inhibition of HNE using a fluorogenic peptide substrate (continuous read-out signal, 384 MTP assay format)
# STUDY CONDITIONS: substrate MeOSuc-Ala-Ala-Pro-Val-AMC, 37° C.
Measured pIC50, listed per entry for reference.
Scale: negative log10 of molar concentration, which is what pIC50 denotes.

response.value for COCCNC(=O)C1C(=O)N(c2cccc(C(F)(F)F)c2)C(C)=C(C#N)C1c1ccc(C#N)cc1 (stereo not shown) [Example 20] (field: pIC50) = 7.52

response.value for CCOC(=O)C1=C(C)N(c2cccc(C(F)(F)F)c2)C(=O)C(C(=O)OCC)C1c1cc2cc(C#N)ccc2o1 (stereo not shown) [Example 15] (field: pIC50) = 6.70

response.value for CC1=C(C#N)C(c2ccc(C#N)cc2)C(C(=O)NCCC(=O)O)C(=O)N1c1cccc(C(F)(F)F)c1 (stereo not shown) [Example 19] (field: pIC50) = 7.60

response.value for CC1=C(C#N)C(c2ccc(C#N)cc2)C(C(N)=O)C(=O)N1c1cccc(C(F)(F)F)c1 (single isomer, unassigned; (-)) [Example 98] (field: pIC50) = 8.10

response.value for CCNC(=O)C1=C(C)N(c2cccc(C(F)(F)F)c2)C(=O)CC1c1ccc(C#N)cc1 (stereo not shown) [Example 77] (field: pIC50) = 6.46

response.value for CCOC(=O)C1=C(C)N(c2cccc(C(F)(F)F)c2)C(=O)C(C(=O)OCC)C1c1ccc(C#N)cc1 (stereo not shown) [Example 1] (field: pIC50) = 7.52

response.value for CC1=C(C#N)C(c2ccc(C#N)cc2)C(C(N)=O)C(=O)N1c1cccc(C(F)(F)F)c1 (stereo not shown) [Example 7] (field: pIC50) = 7.89
